- test-method-notes: Plasma pharmacokinetics after i.v. injection (LC-MS/MS)
- Assay type: in vivo
- cond: Swiss CD1, mouse, iv, mice, 7.5 mg/kg i.v., 4 h, read-out: Givinostat plasma level
observed-property: concentration at 4 h (ng/mL)
Could you give me the number in ng/mL? Just the number is fine.

## Input Quick check: concentration at 4 h of CCN(CC)Cc1ccc2cc(COC(=O)Nc3ccc(C(=O)NO)cc3)ccc2c1 [Givinostat] ?
## Output 6

----------
- test-method-notes: Plasma pharmacokinetics after i.v. injection (LC-MS/MS)
- Assay type: in vivo
- cond: Swiss CD1, mouse, iv, mice, Givinostat 7.5 mg/kg single i.v., read-out: half-life (t1/2) (converted)
observed-property: half-life
Provide a numeric answer, followed by its unit.

## Input Quick check: half-life of `CCN(CC)Cc1ccc2cc(COC(=O)Nc3ccc(C(=O)NO)cc3)ccc2c1` ?
## Output 1.7 h

----------
- test-method-notes: Plasma pharmacokinetics after i.v. injection (LC-MS/MS)
- Assay type: in vivo
- cond: Swiss CD1, mouse, iv, mice, 7.5 mg/kg single i.v., read-out: volume of distribution
observed-property: Vd

## Input Quick check: Vd of CCN(CC)Cc1ccc2cc(COC(=O)Nc3ccc(C(=O)NO)cc3)ccc2c1 [Givinostat] ?
## Output 10.8 L/kg

----------
- test-method-notes: Brain penetration after i.v. injection (LC-MS/MS)
- Type: in vivo, Swiss CD1 mice
- cond: Swiss CD1, mouse, brain, iv; mice, 7.5 mg/kg i.v., 4 h; read-out: Givinostat brain level
- Procedure: Mice were sacrificed at different time points up to 48 h after the injection and blood and brain were harvested. […] All samples were analyzed for their Givinostat content using the LC-MS/MS method. […] Samples were analyzed on a UPLC Acquity (Waters, Milford, MA, USA) coupled with an API 3200 Triple Quadrupole (ABSciex). […] Analytes were quantified in MRM ESI positive mode. […] Pharmacokinetic parameters were calculated using Excel Add in (PK Solver 2.0, Excel 2007 Microsoft add in). […]
observed-property: concentration at 4 h
Provide a numeric answer, followed by its unit.

## Input Quick check: concentration at 4 h of `CCN(CC)Cc1ccc2cc(COC(=O)Nc3ccc(C(=O)NO)cc3)ccc2c1` ?
## Output 13 ng/g

----------
- test-method-notes: Brain penetration after i.v. injection (LC-MS/MS)
- Type: in vivo, Swiss CD1 mice
- cond: Swiss CD1, mouse, brain, iv; mice, 7.5 mg/kg single i.v.
observed-property: Cmax

## Input Quick check: Cmax of `CCN(CC)Cc1ccc2cc(COC(=O)Nc3ccc(C(=O)NO)cc3)ccc2c1` ?
## Output ~100 ng/g
